PROTOCOL: subacute toxicity, 7-day intragastric administration: blood biochemical and hematological indicators
Format: in vivo, rat
COND: 60 mg/kg intragastric once a day for 7 days, male Sprague-Dawley rats
Would you mind telling me the reported AST of each entry?
One number for each entry, in U/L.

// below: answered compounds
COMPOUND | UNIT_NAME | AST
[2H]C1([2H])C=C(C([2H])([2H])C([2H])([2H])C([2H])([2H])C([2H])([2H])[2H])[C@@]23C[C@@H](CC[C@]2(C)C1)C(C)(C)O3 | U/L | 107.7
[2H]C([2H])([2H])C([2H])([2H])C([2H])([2H])C([2H])([2H])C1=CCC[C@@]2(C)CC[C@@H]3C[C@]12OC3(C)C | U/L | 137.2
CCCCC1=CCC[C@@]2(C)CC[C@@H]3C[C@]12OC3(C)C [BAF, 4-butyl-α-agarofuran, reference compound] | U/L | 258.7
[2H]C1([2H])C=C(CCCC)[C@@]23C[C@@H](CC[C@]2(C)C1)C(C)(C)O3 [I-1, d2-BAF] | U/L | 163.9

Attention now turns to another entry.
AST measured on `[2H]C1=C(CCCC)[C@@]23C[C@@H](CC[C@]2(C)CC1([2H])[2H])C(C)(C)O3` = 115.4

====

Tested on: Wistar rats
PROTOCOL: elevated plus-maze test on rats (anxiolytic effect)
Type: in vivo, rat
COND: 1 mg/kg intragastric, 30 min after administration, within 5 minutes
Mark Satisfied for dwell time in the open arms under 70 s, Not satisfied if at or over.

Solved cases below.
MOLECULE | ANSWER_LABEL
[2H]C1=C(C([2H])([2H])C([2H])([2H])C([2H])([2H])C([2H])([2H])[2H])[C@@]23C[C@@H](CC[C@]2(C)CC1)C(C)(C)O3 | Not satisfied
[2H]C1=C(CCCC)[C@@]23C[C@@H](CC[C@]2(C)CC1([2H])[2H])C(C)(C)O3 | Satisfied
[2H]C1([2H])C=C(C([2H])([2H])C([2H])([2H])C([2H])([2H])C([2H])([2H])[2H])[C@@]23C[C@@H](CC[C@]2(C)C1)C(C)(C)O3 | Not satisfied

-- ask Criterion: dwell time in the open arms strictly below 70 s. Is it met by `[2H]C1([2H])C=C(CCCC)[C@]23OC(C)(C)[C@H](CC[C@]2(C)C1)C3([2H])[2H]` ?
-- reply Satisfied

-- ask Lab note: confirm whether the reported dwell time in the open arms for this molecule is below 70 s, equality not counting. molecule: CCCCC1=CCC[C@@]2(C)CC[C@@H]3C[C@]12OC3(C)C [BAF, 4-butyl-α-agarofuran, reference compound]
-- reply Satisfied

-- ask Given [2H]C1([2H])C=C(CCCC)[C@@]23C[C@@H](CC[C@]2(C)C1)C(C)(C)O3 [I-1, d2-BAF] , is recorded dwell time in the open arms strictly lower than 70 s?
-- reply Satisfied

====

Test system: Wistar rats
PROTOCOL: elevated plus-maze test on rats (anxiolytic effect)
Format: in vivo, rat
COND: 2 mg/kg intragastric, 30 min after administration, within 5 minutes
OBSERVED_PROPERTY: dwell time in the open arms (s)
Numbers only, in s.

In the examples that follow, each entry is paired with its recorded dwell time in the open arms.
COMPOUND | UNIT_NAME | dwell time in the open arms
[2H]C1([2H])C=C(C([2H])([2H])C([2H])([2H])C([2H])([2H])C([2H])([2H])[2H])[C@@]23C[C@@H](CC[C@]2(C)C1)C(C)(C)O3 | s | 72.6
[2H]C1=C(C([2H])([2H])C([2H])([2H])C([2H])([2H])C([2H])([2H])[2H])[C@@]23C[C@@H](CC[C@]2(C)CC1)C(C)(C)O3 | s | 71.4
[2H]C1=C(CCCC)[C@@]23C[C@@H](CC[C@]2(C)CC1([2H])[2H])C(C)(C)O3 | s | 69.7
CCCCC1=CCC[C@@]2(C)CC[C@@H]3C[C@]12OC3(C)C [BAF, 4-butyl-α-agarofuran, reference compound] | s | 45.2
[2H]C1([2H])C=C(CCCC)[C@@]23C[C@@H](CC[C@]2(C)C1)C(C)(C)O3 [I-1, d2-BAF] | s | 68.4
[2H]C1([2H])C=C(CCCC)[C@]23OC(C)(C)[C@H](CC[C@]2(C)C1)C3([2H])[2H] | s | 67.2
[2H]C([2H])([2H])C([2H])([2H])C([2H])([2H])C([2H])([2H])C1=CCC[C@@]2(C)CC[C@@H]3C[C@]12OC3(C)C | s | 71.2

Field: next compound
Recorded result, `[2H]C1=C(C([2H])([2H])C([2H])([2H])C([2H])([2H])C([2H])([2H])[2H])[C@@]23C[C@@H](CC[C@]2(C)CC1([2H])[2H])C(C)(C)O3` , dwell time in the open arms: 76.9

// provenance: patent US11358944B2
